src = the supplement of paper PMC10567573

B1: TPRG1 (parent)
chain: ETIQGFWLLTKIDHWNNEKERILL

variants of: B1; experiment: protein stability index of a GFP-peptide fusion (GPS, HEK-293T) (PSI 1-6); higher = more stable; conditions: c terminus: a fixed tail appended;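 also: lentivirally expressed fusions sorted by FACS into six bins by GFP to DsRed ratio, PSI derived from sequencing read proportions per bin multiplied by bin number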
So basically: protein stability index at 2 or higher? That is rule met. Lower than 2? That is rule not met.

{"mutationString": "W7E", "label": "rule not met"}
{"mutationString": "H14G", "label": "rule not met"}
{"mutationString": "I3N", "label": "rule not met"}
{"mutationString": "K19E", "label": "rule not met"}
{"mutationString": "I22A", "label": "rule met"}
{"mutationString": "K19A", "label": "rule met"}
{"mutationString": "Q4N", "label": "rule not met"}
